Target: MDM2 (Homo sapiens, UniProt Q00987)
Sequence (Q00987 1-125): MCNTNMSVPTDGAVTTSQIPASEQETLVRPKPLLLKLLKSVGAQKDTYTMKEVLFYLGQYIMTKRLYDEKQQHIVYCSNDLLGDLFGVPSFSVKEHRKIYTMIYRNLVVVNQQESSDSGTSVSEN
Assay: Competitive fluorescence polarization assay for MDM2
Type: binding
Settings: competitive FP assay, MDM2; read-out: Ki (MDM2)
pKi: −log10 of the molar value.
Measured metric: pKi

INSERT INTO measurements (molecule, measured_metric, result) VALUES
  ('CC(=O)N[C@@H](CC(C)C)C(=O)N[C@H](C(=O)N[C@@H](Cc1ccccc1)C(=O)N[C@]1(C)CCCCCCC=CCCC[C@@](C)(C(=O)N[C@@H](C)C(=O)N[C@@H](C)C(=O)N[C@@H](C)C(=O)N[C@@H](C)C(=O)NC(C)(C)C(=O)N[C@H](C)C(N)=O)NC(=O)[C@H](CC(C)C)NC(=O)[C@H](CCC(N)=O)NC(=O)[C@H](C)NC(=O)[C@H](Cc2c[nH]c3ccccc23)NC(=O)[C@H](Cc2ccc(O)cc2)NC(=O)[C@H](CCC(=O)O)NC1=O)[C@@H](C)O (single isomer, unassigned) [compound 565]', 'pKi', '7.00 to 8.00');
